These data points were gathered from patent US9000162B2.

Tested on: Pseudoperonospora cubensis (PSPECU)
measurement-description: Cucumber downy mildew foliar protectant test
Format: in vivo
reported-conditions: 200 ppm foliar, inoculated one day after treatment, read-out: Activity against fungal diseases PSPECU
Documented pest or weed control at 200 ppm across a set of compounds

| compound | assayed-target | pest or weed control at 200 ppm |
| --- | --- | --- |
| Fc1ccc(F)c2c(NCCc3ccc(Oc4nccc(C(F)(F)F)n4)cc3)ncnc12 [Compound 3] | Pseudoperonospora cubensis (PSPECU) | 80 to 100% |
| Fc1ccc(F)c2c(NCCc3ccc(Oc4c(Cl)cnc(C(F)(F)F)c4Cl)cc3)ncnc12 [Compound 95] | Pseudoperonospora cubensis (PSPECU) | 80 to 100% |
| [O-][n+]1ccc(C(F)(F)F)c(Oc2ccc(CCNc3ncnc4c(F)ccc(F)c34)cc2)c1 [Compound 115] | Pseudoperonospora cubensis (PSPECU) | 80 to 100% |
| Oc1ccc(CCNc2ncnc3c(F)ccc(F)c23)cc1 [Compound 4] | Pseudoperonospora cubensis (PSPECU) | 50 to 79% |
| CC(Nc1ncnc2c(F)ccc(F)c12)c1ccccc1 (centres unmarked) [Compound 119] | Pseudoperonospora cubensis (PSPECU) | 80 to 100% |
| Fc1ccc(F)c2c(NC3Cc4ccc(Oc5ccc(C(F)(F)F)cn5)cc4C3)ncnc12 (centres unmarked) [Compound 111] | Pseudoperonospora cubensis (PSPECU) | 80 to 100% |
| N#Cc1ccc(Oc2ccc(CCNc3ncnc4c(F)ccc(F)c34)cc2)nc1 [Compound 124] | Pseudoperonospora cubensis (PSPECU) | 80 to 100% |
| Fc1cc(F)c2ncnc(NCCc3ccc(Oc4cc(C(F)(F)F)ccn4)cc3)c2c1F [Compound 31] | Pseudoperonospora cubensis (PSPECU) | 80 to 100% |
| COc1ccc(CCNc2ncnc3c(F)ccc(F)c23)c(C)c1 [Compound 42] | Pseudoperonospora cubensis (PSPECU) | 80 to 100% |
| CC(F)(F)c1cc[n+]([O-])c(Oc2ccc(CCNc3ncnc4c(F)ccc(F)c34)cc2)c1 [Compound 10] | Pseudoperonospora cubensis (PSPECU) | 80 to 100% |
| Cc1c(CCNc2ncnc3c(F)ccc(F)c23)ccc(Oc2cc(C(F)(F)F)ccn2)c1C [Compound 26] | Pseudoperonospora cubensis (PSPECU) | 80 to 100% |
| COc1cc(CCNc2ncnc3c(F)ccc(F)c23)ccc1Oc1c(Cl)cnc(C(Cl)(Cl)Cl)c1Cl [Compound 89] | Pseudoperonospora cubensis (PSPECU) | 50 to 79% |
| COc1cc(CCNc2ncnc3c(F)ccc(F)c23)ccc1Oc1cc(C(C)(F)F)ccn1 [Compound 16] | Pseudoperonospora cubensis (PSPECU) | 80 to 100% |
| Fc1cc(C(F)(F)F)cnc1Oc1ccc(CCNc2ncnc3c(F)ccc(F)c23)cc1 [Compound 5] | Pseudoperonospora cubensis (PSPECU) | 80 to 100% |
| Cc1cc(CCNc2ncnc3c(F)ccc(F)c23)ccc1Oc1c(Cl)cnc(C(F)(F)F)c1Cl [Compound 79] | Pseudoperonospora cubensis (PSPECU) | 50 to 79% |
| Oc1ccc(CCNc2ncnc3c(F)ccc(F)c23)cc1Cl [Compound 87] | Pseudoperonospora cubensis (PSPECU) | 50 to 79% |
| Nc1c(F)c(F)nc(Oc2ccc(CCNc3ncnc4c(F)ccc(F)c34)cc2)c1F [Compound 97] | Pseudoperonospora cubensis (PSPECU) | 80 to 100% |

---

Test system: Septoria tritici (SEPTTR)
measurement-description: Septoria blotch of wheat foliar protectant test
Assay type: in vivo
reported-conditions: Zymoseptoria tritici; 200 ppm foliar, inoculated one day after treatment; read-out: Activity against fungal diseases SEPTTR

| given-smiles | pest or weed control at 200 ppm |
| --- | --- |
| COc1cc(CCNc2ncnc3c(F)ccc(F)c23)ccc1Oc1nc(F)c(F)c(N)c1F | 0 to 49% |
| Fc1cc(F)c2ncnc(NCCc3ccc(Oc4ccc(C(F)(F)F)cn4)cc3)c2c1F | 80 to 100% |
| COc1cc(CCNc2ncnc3c(F)ccc(F)c23)ccc1Oc1cc(Cl)nc(C(F)(F)F)n1 | 0 to 49% |
| Cc1cc(Oc2cc(C(F)(F)F)ccn2)ccc1CCNc1ncnc2c(F)ccc(F)c12 | 80 to 100% |
| Oc1ccc(CCNc2ncnc3c(F)cc(F)c(F)c23)cc1Cl | 0 to 49% |
| COc1cc(CCNc2ncnc3c(F)ccc(F)c23)ccc1Oc1cc(C(F)(F)F)ccn1 | 80 to 100% |
| Fc1cc(F)c2ncnc(NCCc3ccc(Oc4cnccc4C(F)(F)F)c(Cl)c3)c2c1F | 80 to 100% |
| CCc1cc(CCNc2ncnc3c(F)ccc(F)c23)ccc1Oc1cc(C(F)(F)F)ccn1 | 80 to 100% |

---

Tested on: Puccinia recondita tritici (PUCCRT)
measurement-description: Leaf rust of wheat foliar protectant test
Format: in vivo
reported-conditions: 200 ppm foliar, inoculated one day after treatment, read-out: Activity against fungal diseases PUCCRT
Description: The plants were inoculated with the fungus one day after treatment. ***=80-100% control; **=50-79% control; *=0-49% control. […] The activity of the compounds as effective fungicides was determined by applying the compounds to plants and observing control of fungal disease. […] Disease severity was evaluated 4 to 25 days later, depending on the speed of disease development. […] Table 1 presents the activity of typical compounds of the present invention when evaluated in these experiments. […]

| given-smiles | pest or weed control at 200 ppm |
| --- | --- |
| COc1cc(CCNc2ncnc3c(F)ccc(F)c23)ccc1Oc1ncc(C(F)(F)F)cc1F | 80 to 100% |
| COc1ccc(CCNc2ncnc3c(F)ccc(F)c23)c(C)c1 | 80 to 100% |
| N#Cc1c(Cl)cncc1Oc1ccc(CCNc2ncnc3c(F)ccc(F)c23)cc1 | 80 to 100% |
| Fc1cc(C(F)(F)F)cnc1Oc1ccc(CCNc2ncnc3c(F)ccc(F)c23)cc1 | 80 to 100% |
| Fc1ccc(F)c2c(NCCc3ccc(Oc4cc(Cl)ncn4)cc3)ncnc12 | 80 to 100% |
| COc1cc(CCNc2ncnc3c(F)ccc(F)c23)ccc1Oc1cc(C(F)(F)F)ccn1 | 80 to 100% |
| Fc1cc(F)c2ncnc(NCCc3ccc(Oc4cnccc4C(F)(F)F)c(Cl)c3)c2c1F | 80 to 100% |
| CC(F)(F)c1ccnc(Oc2ccc(CCNc3ncnc4c(F)ccc(F)c34)cc2)c1 | 80 to 100% |

---

Test system: Septoria tritici (SEPTTR)
measurement-description: Septoria blotch of wheat foliar protectant test
Format: in vivo
reported-conditions: Zymoseptoria tritici; 200 ppm foliar, inoculated one day after treatment; read-out: Activity against fungal diseases SEPTTR
Documented pest or weed control at 200 ppm across a set of compounds

| compound | pest or weed control at 200 ppm |
| --- | --- |
| Fc1ccc(F)c2c(NCCc3ccc(Oc4c(Cl)cnc(C(F)(F)F)c4Cl)cc3)ncnc12 | 80 to 100% |
| Cc1cc(CCNc2ncnc3c(F)ccc(F)c23)c(C)cc1O | 0 to 49% |
| COc1ccc(CCNc2ncnc3c(F)cc(F)c(F)c23)cc1C | 0 to 49% |
| COc1cc(CCNc2ncnc3c(F)ccc(F)c23)ccc1Oc1c(F)cnc(C(F)(F)F)c1F | 80 to 100% |
| COc1cc(C(F)(F)F)cc(Oc2ccc(CCNc3ncnc4c(F)ccc(F)c34)c(C)c2C)n1 | 0 to 49% |
| Cc1cc(C(F)(F)F)cc(Oc2ccc(CCNc3ncnc4c(F)ccc(F)c34)cc2)n1 | 80 to 100% |
| Fc1ccc(F)c2c(NC3Cc4ccc(Oc5cc(C(F)(F)F)ccn5)cc4C3)ncnc12 (centres unmarked) | 80 to 100% |
| COc1ccc(CCNc2ncnc3c(F)cc(F)c(F)c23)cc1Cl | 0 to 49% |
| Cc1cc(CCNc2ncnc3c(F)ccc(F)c23)ccc1Oc1nc(C(F)(F)F)nc(F)c1F | 0 to 49% |
| CC(C)Oc1cc(CCNc2ncnc3c(F)ccc(F)c23)ccc1Oc1cc(C(F)(F)F)ccn1 | 80 to 100% |
| COc1cc(CCNc2ncnc3c(F)ccc(F)c23)ccc1Oc1ccnc(C(F)(F)F)c1Cl | 80 to 100% |
| COc1cc(C(C)(F)F)cc(Oc2ccc(CCNc3ncnc4c(F)ccc(F)c34)cc2)n1 | 80 to 100% |
| Cc1cc(CCNc2ncnc3c(F)ccc(F)c23)ccc1Oc1c(Cl)cnc(C(F)(F)F)c1Cl | 80 to 100% |
| Cc1cc(Oc2cc(C(F)(F)F)ccn2)c(C)cc1CCNc1ncnc2c(F)ccc(F)c12 | 80 to 100% |
| Fc1ccc(F)c2c(NCCc3ccc(Oc4cc(C(F)(F)F)ccn4)c(Cl)c3)ncnc12 | 80 to 100% |
| Oc1ccc(CCNc2ncnc3c(F)ccc(F)c23)cc1 | 0 to 49% |
| Fc1ccc(F)c2c(NCCc3ccc(Oc4ccc(C(F)(F)F)cn4)cc3)ncnc12 | 80 to 100% |
